read-out: Tissue Factor, F3 (gene 2152); experiment: BSK_LPS_TissueFactor: BioMAP Diversity Plus: LPS Assay for Tissue Factor Biomarker Activity (AID 2283084); conditions: primary human HUVEC with PBMC; actives raise or lower the signal
Activity calls are given as the source filed them. Rule for the calls: active = hit-call score of the fitted dose curve at least 0.9, where 1 is the maximum; inactive = score below 0.9.
value type: AC50

Known results for molecules:
molecule: FC(F)C(F)(F)OCC(Cn1cncn1)c1ccc(Cl)cc1Cl (stereo unspecified)
AC50: inactive
//
molecule: CCNc1nc(Cl)nc(NC(C)(C)C#N)n1
AC50: inactive
//
molecule: COc1cc(OC)nc(Sc2cccc(Cl)c2C(=O)O)n1
AC50: inactive
//
molecule: CCCSP(=O)(OCC)Oc1ccc(Br)cc1Cl (stereo unspecified)
AC50: inactive
//
molecule: CCCCSP(=O)(SCCCC)SCCCC
AC50: inactive
//
molecule: CNC(=O)Oc1cccc2c1OC(C)(C)O2
AC50: inactive
//
molecule: CCC(CC)Nc1c([N+](=O)[O-])cc(C)c(C)c1[N+](=O)[O-]
AC50: inactive
//
molecule: COP(=O)(OC)OC(Br)C(Cl)(Cl)Br (stereo unspecified)
AC50: 15.2 µM (active)
//
molecule: CC(C1CC1)C(O)(Cn1cncn1)c1ccc(Cl)cc1 (stereo unspecified)
AC50: inactive
//
molecule: CCOP(=O)(SC(C)CC)N1CCSC1=O (stereo unspecified)
AC50: inactive

May I ask what AC50 has been recorded for `CSC1=N[C@@](C)(c2ccccc2)C(=O)N1Nc1ccccc1` ? inactive

May I ask what AC50 has been recorded for `COP(=O)(OC)SCn1c(=O)oc2cc(Cl)cnc21` ? inactive

May I ask what AC50 has been recorded for `C=C(C)[C@H]1Cc2c(ccc3c2O[C@@H]2COc4cc(OC)c(OC)cc4[C@@H]2C3=O)O1` ? 8.75 µM (active)

May I ask what AC50 has been recorded for `CCC(=O)Nc1ccc(Cl)c(Cl)c1` ? inactive

May I ask what AC50 has been recorded for `CC(C)[C@H](C(=O)O[C@H](C#N)c1cccc(Oc2ccccc2)c1)c1ccc(Cl)cc1` ? inactive

May I ask what AC50 has been recorded for CCOP(=O)(NC(C)C)Oc1ccc(SC)c(C)c1 (stereo unspecified) ? inactive

* * *

read-out: ABC Transporter (ABCC2), ABCC2 (gene 1244); assay: LTEA_HepaRG_ABCC2: Life Technologies and Expression Analysis (LTEA) Assay for ABC Transporter (ABCC2) using HepaRG (AID 2283464); conditions: mRNA level, 48 h; actives raise or lower the signal
The source made the active and inactive calls. How the source made its calls: active means hit-call score of the fitted dose curve at least 0.9, where 1 is the maximum; inactive means score below 0.9.
One label from this list, please: active, inactive

How was `CSc1nc(NC(C)C)nc(NC(C)C)n1` classified in this test? inactive

How was C#CCC1=C(C)C(OC(=O)C2C(C=C(C)C)C2(C)C)CC1=O (stereo unspecified) classified in this test? active

How was CCOP(=S)(Oc1cnc(C(C)(C)C)nc1)OC(C)C (stereo unspecified) classified in this test? inactive

How was `CON=C(C(=O)OC)c1ccccc1CON=C(C)c1cccc(C(F)(F)F)c1` classified in this test? inactive

How was `CCC(CC)Nc1c([N+](=O)[O-])cc(C)c(C)c1[N+](=O)[O-]` classified in this test? inactive

How was CCOP(=O)(NC(C)C)Oc1ccc(SC)c(C)c1 (stereo unspecified) classified in this test? inactive

* * *

target: human CYP1A1, CYP1A1 (gene 1543); assay: NVS_ADME_hCYP1A1: NovaScreen (NVS) CYP450-related Enzyme Activity (ADME) Assay for human CYP1A1 (AID 2283100)
Inconclusive results are not listed. Calls of active or inactive are those of the source. How the source made its calls: active means hit-call score of the fitted dose curve at least 0.9, where 1 is the maximum; inconclusive means response in the unintended direction; inactive means score below 0.9.
One label from this list, please: class 1 for active, class 0 for inactive

A selection of reference data follows.
compound: CCOP(=S)(OCC)Oc1ccc([N+](=O)[O-])cc1
class: class 1
--
compound: COc1ccc(C(=CC(=O)N2CCOCC2)c2ccc(Cl)cc2)cc1OC
class: class 1
--
compound: CNc1cnn(-c2cccc(C(F)(F)F)c2)c(=O)c1Cl
class: class 1
--
compound: CCCOCC(=Nc1ccc(Cl)cc1C(F)(F)F)n1ccnc1
class: class 1
--
compound: CCOP(=O)(NC(C)C)Oc1ccc(SC)c(C)c1 (stereo unspecified)
class: class 1

How was `C=C(C)[C@H]1Cc2c(ccc3c2O[C@@H]2COc4cc(OC)c(OC)cc4[C@@H]2C3=O)O1` classified in this test? class 0

* * *

read-out: Monocyte Chemoattractant Protein-1 (MCP1), CCL2 (gene 6347); experiment: BSK_4H_MCP1: BioMAP Diversity Plus: 4H Assay for Monocyte Chemoattractant Protein-1 (MCP1) Biomarker Activity (AID 2283018); settings: primary human endothelial cells (HUVEC); actives raise or lower the signal
Activity calls are given as the source filed them. How the source made its calls: active means hit-call score of the fitted dose curve at least 0.9, where 1 is the maximum; inactive means score below 0.9.
One label from this list, please: label 1 (active), label 0 (inactive)

compound: CC(C)N(C(=O)SCC(Cl)=C(Cl)Cl)C(C)C
class: label 1
--
compound: CCC(=O)Nc1ccc(Cl)c(Cl)c1
class: label 0
--
compound: CC[C@H](C)[C@H]1O[C@]2(C=C[C@@H]1C)C[C@@H]1C[C@@H](C/C=C(\C)[C@@H](O[C@H]3C[C@H](OC)[C@@H](O[C@H]4C[C@H](OC)[C@@H](NC)[C@H](C)O4)[C@H](C)O3)[C@@H](C)/C=C/C=C3\CO[C@@H]4[C@H](O)C(C)=C[C@@H](C(=O)O1)[C@]34O)O2
class: label 1
--
compound: CSC1=N[C@@](C)(c2ccccc2)C(=O)N1Nc1ccccc1
class: label 1
--
compound: CN(C)[C@@H]1C(=O)C(C(N)=O)=C(O)[C@@]2(O)C(=O)C3=C(O)c4c(O)cccc4[C@@](C)(O)[C@H]3[C@H](O)[C@@H]12
class: label 0

How was CC(C)=CC1C(C(=O)OCN2C(=O)C3=C(CCCC3)C2=O)C1(C)C (stereo not drawn) classified in this test? label 0

How was `COc1ccc(C(=CC(=O)N2CCOCC2)c2ccc(Cl)cc2)cc1OC` classified in this test? label 0

How was C#CCC1=C(C)C(OC(=O)C2C(C=C(C)C)C2(C)C)CC1=O (stereo not drawn) classified in this test? label 1

* * *

read-out: Monocyte Chemoattractant Protein-1 (MCP1), CCL2 (gene 6347); assay: BSK_CASM3C_MCP1: BioMAP Diversity Plus: CASM3C Assay for Monocyte Chemoattractant Protein-1 (MCP1) Biomarker Activity (AID 2283046); settings: primary human coronary artery smooth muscle cells; actives raise or lower the signal;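 note: MCP-1 level quantified by ELISA 24 h after dosing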
The source made the active and inactive calls. Rule for the calls: active = hit-call score of the fitted dose curve at least 0.9, where 1 is the maximum; inactive = score below 0.9.
One label from this list, please: active, inactive

A selection of reference data follows.
compound: CN(C)NC(=O)CCC(=O)O
class: inactive
--
compound: COc1ccc(C(=CC(=O)N2CCOCC2)c2ccc(Cl)cc2)cc1OC
class: active
--
compound: Cc1ccn2nc(S(=O)(=O)Nc3c(F)cccc3F)nc2n1
class: inactive

How was `CCOP(=O)(OCC)Oc1cc(C)nc(C(C)C)n1` classified in this test? inactive

How was `CCOP(=S)(OCC)Oc1cc(C)nc(C(C)C)n1` classified in this test? inactive

How was `CCOP(=S)(OCC)Oc1ccc([N+](=O)[O-])cc1` classified in this test? inactive

How was CCOC(=O)CC(SP(=O)(OC)OC)C(=O)OCC (stereo not given) classified in this test? inactive

How was `CC(C)N(C(=O)SCC(Cl)=C(Cl)Cl)C(C)C` classified in this test? inactive

How was `CNc1cnn(-c2cccc(C(F)(F)F)c2)c(=O)c1Cl` classified in this test? inactive

How was `CNC(=O)ON=C(C)SC` classified in this test? inactive

How was `CCC(=O)Nc1ccc(Cl)c(Cl)c1` classified in this test? inactive

* * *

assay: CCTE_Padilla_ZF_144hpf_TERATOSCORE: (Legacy) CCTE's 144 Hour Post-fertilization zebrafish Assay Teratoscore, Padilla Lab (AID 2283679)
Calls of active or inactive are those of the source. The calls were made as follows: active = hit-call score of the fitted dose curve at least 0.9, where 1 is the maximum; inactive = score below 0.9.
One label from this list, please: active, inactive

compound: Cc1nn(-c2cc(NS(C)(=O)=O)c(Cl)cc2Cl)c(=O)n1C(F)F
class: active

compound: CCCCSP(=O)(SCCCC)SCCCC
class: active

compound: CC(COc1ccc(Oc2ccccc2)cc1)Oc1ccccn1 (stereo not given)
class: active

compound: COP(=O)(NC(C)=O)SC (stereo not given)
class: inactive

compound: CCOP(=S)(OCC)Oc1cc(C)nc(C(C)C)n1
class: active

Now turn to the next compound.
How was `CC(=NC#N)N(C)Cc1ccc(Cl)nc1` classified in this test? inactive

* * *

read-out: TIMP metallopeptidase inhibitor 1 (TIMP1), TIMP1 (gene 7076); assay: BSK_hDFCGF_TIMP1: BioMAP Diversity Plus: hDFCGF Assay for TIMP metallopeptidase inhibitor 1 (TIMP1) Biomarker Activity (AID 2283062); settings: primary human foreskin fibroblasts; actives raise or lower the signal
Active and inactive are the calls of the source. The calls were made as follows: active = hit-call score of the fitted dose curve at least 0.9, where 1 is the maximum; inactive = score below 0.9.
value type: outcome

molecule: CC(=NC#N)N(C)Cc1ccc(Cl)nc1
outcome: inactive

molecule: CNC(=O)ON=C(SC)C(=O)N(C)C
outcome: inactive

molecule: CCCCOC(=O)c1ccccc1C(=O)O
outcome: inactive

molecule: CCOP(=S)(OCC)OC(Cl)C(Cl)(Cl)Cl (stereo not drawn)
outcome: inactive

May I ask what outcome has been recorded for CCc1cccc(C)c1N(C(=O)CCl)C(C)COC (stereo not drawn) ? inactive

May I ask what outcome has been recorded for `CCOP(=S)(OCC)Oc1cc(C)nc(C(C)C)n1` ? inactive

May I ask what outcome has been recorded for CCOP(=O)(NC(C)C)Oc1ccc(SC)c(C)c1 (stereo not drawn) ? inactive

May I ask what outcome has been recorded for `S=C1NCCN1` ? inactive

May I ask what outcome has been recorded for `CCC(CC)Nc1c([N+](=O)[O-])cc(C)c(C)c1[N+](=O)[O-]` ? inactive
